Biological target: TNKS1 (Homo sapiens, UniProt O95271)
Construct: GST-tagged Tnks-1 (1023-1327 aa, prepared in-house); made in house
Sequence (O95271 1023-1327): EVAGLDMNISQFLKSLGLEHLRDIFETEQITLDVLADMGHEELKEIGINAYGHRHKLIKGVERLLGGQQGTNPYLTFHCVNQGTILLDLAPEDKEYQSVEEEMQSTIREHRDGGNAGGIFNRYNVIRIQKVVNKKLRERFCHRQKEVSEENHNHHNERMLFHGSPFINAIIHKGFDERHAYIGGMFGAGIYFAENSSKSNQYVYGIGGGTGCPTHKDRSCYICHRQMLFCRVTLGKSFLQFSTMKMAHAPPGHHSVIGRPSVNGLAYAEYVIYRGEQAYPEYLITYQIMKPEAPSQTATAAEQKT
Assay: TNKS1 activity ELISA (autoparsylation assay)
Type: biochemical
Conditions: GST-tagged Tnks-1 (1023-1327 aa)
Where a name gives a salt, the structure may show the parent alone.
So I've got a bunch of compounds here, and I need their log10 of IC50 values.
log10 IC50, nM

Query (compound): Cc1ccc2c(=O)[nH]c(CCCC(=O)N3CCC(C(=O)c4cnn(C)c4)CC3)cn12 ; field requested: log10 of IC50
-0.80

Item: CC(C)(O)c1ccc(C(=O)C2CCN(C(=O)CCCc3nn4cccc4c(=O)[nH]3)CC2)cc1
0.86

Now give it for Cc1scc2c(=O)[nH]c(CCCC(=O)N3CCC(c4cnc(N)c(C#N)c4)CC3)nc12 [Compound C115, trifluoroacetate] too.
-0.01

And Cn1cc(C(=O)C2CCN(C(=O)CCCc3nc4c(c(=O)[nH]3)COCC4)CC2)cn1 ?
0.91

And for Cn1cc(C(=O)C2CCN(C(=O)CCCc3cn4c(F)ccc4c(=O)[nH]3)CC2)cn1 ?
-0.60

Please give the result for COc1ccc(C(=O)C2CCN(C(=O)CCCc3nc4c(ccn4C)c(=O)[nH]3)CC2)cn1 too.
-0.19

----------
Biological target: PARP-1 (Homo sapiens, UniProt P09874)
Construct: purchased Enzo Life Sciences GmbH, Lörrach, Germany
Sequence (P09874 whole entry): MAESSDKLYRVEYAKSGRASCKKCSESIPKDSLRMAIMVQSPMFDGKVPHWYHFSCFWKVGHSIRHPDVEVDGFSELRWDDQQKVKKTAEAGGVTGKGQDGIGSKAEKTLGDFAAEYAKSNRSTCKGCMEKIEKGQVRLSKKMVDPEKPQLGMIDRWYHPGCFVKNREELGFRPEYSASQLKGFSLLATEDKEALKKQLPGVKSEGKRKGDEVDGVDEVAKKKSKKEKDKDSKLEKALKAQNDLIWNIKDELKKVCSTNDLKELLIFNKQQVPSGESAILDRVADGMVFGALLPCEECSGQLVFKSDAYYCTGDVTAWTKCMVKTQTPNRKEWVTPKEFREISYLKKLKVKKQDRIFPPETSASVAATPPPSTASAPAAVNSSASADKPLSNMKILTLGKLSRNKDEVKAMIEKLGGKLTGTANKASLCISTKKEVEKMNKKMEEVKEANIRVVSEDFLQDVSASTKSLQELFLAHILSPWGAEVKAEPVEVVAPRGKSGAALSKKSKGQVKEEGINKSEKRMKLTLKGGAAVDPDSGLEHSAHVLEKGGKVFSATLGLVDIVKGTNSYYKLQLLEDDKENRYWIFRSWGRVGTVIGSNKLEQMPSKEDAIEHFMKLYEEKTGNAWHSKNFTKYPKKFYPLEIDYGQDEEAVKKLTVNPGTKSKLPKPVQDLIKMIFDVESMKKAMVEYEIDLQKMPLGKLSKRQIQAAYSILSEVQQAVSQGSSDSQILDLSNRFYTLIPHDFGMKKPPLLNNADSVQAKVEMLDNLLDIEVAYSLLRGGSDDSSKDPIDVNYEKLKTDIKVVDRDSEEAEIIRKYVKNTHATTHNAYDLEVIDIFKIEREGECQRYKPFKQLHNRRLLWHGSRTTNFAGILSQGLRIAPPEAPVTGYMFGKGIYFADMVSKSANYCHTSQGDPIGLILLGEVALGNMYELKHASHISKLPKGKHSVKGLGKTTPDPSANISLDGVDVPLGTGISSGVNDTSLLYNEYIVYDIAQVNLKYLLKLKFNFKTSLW
Assay: PARP-1 autoparsylation assay (HTRF)
Assay type: biochemical
Conditions: His-tagged Parp-1, autoparsylation HTRF
Mark each entry 1 (yes) if its IC50 sits below 5 µM, and 0 (no) for all others.

Here's an entry: Cc1scc2c(=O)[nH]c(CCCC(=O)N3CCC(C(=O)c4ccc(F)cc4)CC3)nc12 . Is its IC50 below 5 µM?
1 (yes)

And then COc1ccc(C(=O)C2CCN(C(=O)CCCc3nc4c(cnn4C)c(=O)[nH]3)CC2)cc1F , what is it?
0 (no)

And for COc1ccc(C(=O)C2CCN(C(=O)CCCc3nc4c(cnn4C)c(=O)[nH]3)CC2)cc1 ?
0 (no)

Please do the same for Cn1ncc2c(=O)[nH]c(CCCC(=O)N3CCC(c4nnc(-c5ccccc5)o4)CC3)nc21 as well.
0 (no)

One more compound: COc1ccc(C(=O)C2CCN(C(=O)CCCc3cn4nc(C)cc4c(=O)[nH]3)CC2)cn1
1 (yes)

Same again, this time with COc1ccc(C(=O)C2CCN(C(=O)CCCc3nc4c(C)csc4c(=O)[nH]3)CC2)cn1
1 (yes)

Can you check Cc1ccc2c(=O)[nH]c(CCCC(=O)N3CCC(C(=O)c4cnn(C)c4)CC3)cn12 next?
1 (yes)

What about this compound? COc1ccc(C(=O)C2CCN(C(=O)CCCc3nn4c(C)ccc4c(=O)[nH]3)CC2)cc1F
1 (yes)

Could you do the same for Cn1ccc2c(=O)[nH]c(CCCC(=O)N3CCC(C(=O)c4ccc(F)c(F)c4)CC3)nc21 , please?
1 (yes)

And for Nc1ncc(C2CCN(C(=O)CCCc3nn4cc(F)cc4c(=O)[nH]3)CC2)cc1-c1ncccn1 ?
1 (yes)

Entry N#Cc1cc(C2CCN(C(=O)CCCc3nc4c(c(=O)[nH]3)CCCC4)CC2)cnc1N please
1 (yes)

Now consider COc1ccc(C(=O)C2CCN(C(=O)CCCc3nc(C)c(C)c(=O)[nH]3)CC2)cc1 .
0 (no)

// same read-out, input: COc1ccc(C(=O)C2CCN(C(=O)CCCc3nc4c(C)csc4c(=O)[nH]3)CC2)cc1F
1 (yes)

Entry CCn1cc(C(=O)C2CCN(C(=O)CCCc3nn4cccc4c(=O)[nH]3)CC2)cn1 please
0 (no)

----------
Answer each item with its documented IC50.
Molecular target: TNKS2 (Homo sapiens, UniProt Q9H2K2)
Construct: GST-tagged Tnks-2 (873-1166 aa, prepared in-house); made in house
Sequence (Q9H2K2 873-1166): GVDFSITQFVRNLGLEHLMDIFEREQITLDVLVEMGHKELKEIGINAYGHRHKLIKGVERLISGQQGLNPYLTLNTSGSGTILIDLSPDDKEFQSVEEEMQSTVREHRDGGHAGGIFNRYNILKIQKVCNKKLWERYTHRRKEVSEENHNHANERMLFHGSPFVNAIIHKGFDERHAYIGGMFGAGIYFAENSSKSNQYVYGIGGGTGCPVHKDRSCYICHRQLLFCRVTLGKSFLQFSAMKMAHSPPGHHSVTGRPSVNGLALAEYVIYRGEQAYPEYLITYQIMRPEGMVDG
Test: TNKS2 activity ELISA (autoparsylation assay)
Format: biochemical
Conditions: GST-tagged Tnks-2 (873-1166 aa); read-out: IC50 [M] TNKS2 ELISA
Where a name gives a salt, the structure may show the parent alone.
Write the value in M as a bare number.

Consider the compound shown here: Nc1ncc(C2CCN(C(=O)CCCc3nn4cc(F)cc4c(=O)[nH]3)CC2)cc1-c1ncccn1 [Compound C172] What is its recorded IC50?
5.3e-10

Query Cc1scc2c(=O)[nH]c(CCCC(=O)N3CCC(C(=O)c4ccc(F)cc4)CC3)nc12 [Compound C119] next
6.2e-10

// repeat for Cc1scc2c(=O)[nH]c(CCCC(=O)N3CCC(C(=O)c4ccc(C(C)(C)O)cc4)CC3)nc12 [Compound C121] and report
2.4e-09

Okay, and Cc1ccc2c(=O)[nH]c(CCCC(=O)N3CCC(C(=O)c4ccc(C(C)(C)O)cc4)CC3)nn12 [Compound C155] ?
3.8e-10

For Cc1cc2c(=O)[nH]c(CCCC(=O)N3CCC(C(=O)c4cnn(C)c4)CC3)nn2c1 [Compound C168] then?
3.5e-09

And O=C(c1ccc(F)cc1)C1CCN(C(=O)CCCc2noc3ccccc23)CC1 [Compound C259] ?
4.6e-07

Further, for COc1ccc(C(=O)C2CCN(C(=O)CCCc3nc(C(C)C)cc(=O)[nH]3)CC2)cn1 [Compound C256, trifluoroacetate] ?
6.5e-08

Now consider Cc1ccc2c(=O)[nH]c(CCCC(=O)N3CCC(c4cnc(N)c(C#N)c4)CC3)nn12 [Compound C149] .
3.8e-10

Ok, now O=C(c1ccc(F)cc1)C1CCN(C(=O)CCCc2nc3c(c(=O)[nH]2)COCC3)CC1 [Compound C198]
4e-09

Please give the result for Nc1ncc(C2CCN(C(=O)CCCc3nc4c(c(=O)[nH]3)COCC4)CC2)cc1-c1ncccn1 [Compound C195] too.
6.8e-10

Please give the result for COc1ccc(C(=O)C2CCN(C(=O)CCCc3cn4c(C)ncc4c(=O)[nH]3)CC2)cc1 [Compound C33] too.
1.2e-10

One more compound: CCn1cc(C(=O)C2CCN(C(=O)CCCc3nc4c(C)scc4c(=O)[nH]3)CC2)cn1 [Compound C216]
1.3e-09

Now give it for COc1ccc(C(=O)C2CCN(C(=O)CCCc3nc(C)c(C)c(=O)[nH]3)CC2)cn1 [Compound C241] too.
4.9e-09

Next entry: Cn1ncc2c(=O)[nH]c(CCCC(=O)N3CCC(c4cnc(N)c(-c5ncccn5)c4)CC3)nc21 [Compound C45]
1.9e-10

Now consider COc1ccc(C(=O)C2CCN(C(=O)CCCc3nc4c(C)csc4c(=O)[nH]3)CC2)cc1C [Compound C132] and answer again.
1.1e-10

Please answer likewise for Cn1ncc2c(=O)[nH]c(CCCC(=O)N3CCC(c4nnc(-c5ccccc5)o4)CC3)nc21 [Compound C46]
2.4e-09

Lookup Cn1ncc2c(=O)[nH]c(CCCC(=O)N3CCC(C(=O)c4ccc(C(C)(F)F)cc4)CC3)nc21 [Compound C245]
1.7e-10

Cool, now COc1ccc(C(=O)C2CCN(C(=O)CCCc3cn4c(C)cnc4c(=O)[nH]3)CC2)cc1 [Compound C32]
1.4e-10

// query: COc1ccc(C(=O)C2CCN(C(=O)CCCc3cn4ccnc4c(=O)[nH]3)CC2)cc1 [Compound C13]
7.4e-10

Another compound to look at: Cc1ccc2c(=O)[nH]c(CCCC(=O)N3CCC(C(=O)c4cnn(C)c4)CC3)cn12 [Compound C62]
1.2e-10

Same again, this time with COc1ccc(C(=O)C2CCN(C(=O)CCCc3cn4nc(C)cc4c(=O)[nH]3)CC2)cc1 [Compound C12]
1.4e-10

Continue with COc1ccc(C(=O)C2CCN(C(=O)CCCc3cn4cccc4c(=O)[nH]3)CC2)cc1C [Compound C4]
1.5e-10

Can you handle N#Cc1cc(C2CCN(C(=O)CCCc3nc4c(c(=O)[nH]3)COCC4)CC2)cnc1N [Compound C194] next?
4.5e-09

Repeat for the following compound: Cc1scc2c(=O)[nH]c(CCCC(=O)N3CCC(C(=O)c4cnn(C(C)C)c4)CC3)nc12 [Compound C226]
9.5e-10

Same for CCn1cc(C(=O)C2CCN(C(=O)CCCc3nc4c(cnn4C)c(=O)[nH]3)CC2)cn1 [Compound C213]
5.2e-10

And for COc1ccc(C(=O)C2CCN(C(=O)CCCc3nc4c(C)scc4c(=O)[nH]3)CC2)cc1F [Compound C113] ?
2.4e-10

Please do the same for Cc1csc2c(=O)[nH]c(CCCC(=O)N3CCC(Oc4ccc(C#N)cc4)CC3)nc12 [Compound C130] as well.
2.1e-08

Continue with COc1ccc(C(=O)C2CCN(C(=O)CCCc3nc4c(c(=O)[nH]3)COCC4)CC2)cn1 [Compound C193]
2.6e-09

Thanks! And Cc1scc2c(=O)[nH]c(CCCC(=O)N3CCC(c4nnc(-c5ccccc5)o4)CC3)nc12 [Compound C117] ?
5.7e-09

Another: CCn1cc(C(=O)C2CCN(C(=O)CCCc3nc4c(ccn4C)c(=O)[nH]3)CC2)cn1 [Compound C243]
2.2e-10
